Hey, just so you know, these numbers are from BindingDB's records for doi:10.1016/j.chembiol.2003.08.010.

target: Ubiquitin carboxyl-terminal hydrolase isozyme L1 (Mus musculus); test: Inhibition Activity Assay; conditions: pH 7.6; 25 °C
Sequence (Q9R0P9 whole entry): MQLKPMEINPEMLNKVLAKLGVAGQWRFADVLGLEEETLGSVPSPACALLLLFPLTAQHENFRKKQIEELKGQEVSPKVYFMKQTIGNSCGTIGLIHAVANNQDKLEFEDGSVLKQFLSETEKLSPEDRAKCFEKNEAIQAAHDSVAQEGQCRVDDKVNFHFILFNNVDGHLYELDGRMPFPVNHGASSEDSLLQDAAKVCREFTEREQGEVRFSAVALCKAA
Quantity kind: pIC50
// returns pIC50 (minus log10 of molar concentration), number only

Examples from the recorded data:
{"columns": ["Compound", "Quantity kind", "Reported result"],
 "data": [
  ["COc1ccc(-n2c(C=Cc3ccc(O)c(OC)c3)nc3ccccc3c2=O)cc1 [SMR000516541]", "pIC50", 4.92],
  ["CC(C)=CCc1c2c(c(O)c3c(=O)c4c(oc13)-c1cc(O)c(O)cc1OC4C=C(C)C)C=CC(C)(C)O2 (stereo not drawn) [SMR000470928]", "pIC50", 4.92]
]}

Attention now shifts to the item below.
input: Any idea what pIC50 was measured for Cc1cccc(NC(=O)c2nc[nH]c2C(=O)N[C@@H](Cc2ccccc2)C(=O)OC(C)(C)C)c1 ?
output: 4.92
